We begin with a simple list: items and their reported Frequency of re-entries (Mean ± SD).
- Test system: hvCAS (human ventricular cardiac anisotropic sheet of HES2 hESC-derived ventricular cardiomyocytes)
- Type: cell-based
- experimental.context: human, pH 7.4
Lab note: write the figure by itself, no unit.

Recorded results for 4 molecules are shown here.
COc1cc(N)c(Cl)cc1C(=O)NC1CCN(CCCOc2ccc(F)cc2)CC1OC (centres unmarked) [CISA, cisapride]: 1.18
CCN(CC)CCNC(=O)c1ccc(N)cc1 [PROC, procainamide]: 1.53
Cc1cccc(C)c1NC(=O)C(C)N (centres unmarked) [TOC, tocainide]: 1.34
CC(C)(C)c1ccc(C(O)CCCN2CCC(C(O)(c3ccccc3)c3ccccc3)CC2)cc1 (centres unmarked): 1.04

Now consider a different molecule.
The value of Frequency of re-entries (Mean ± SD) measured for the molecule O=C(NCC1CCCCN1)c1cc(OCC(F)(F)F)ccc1OCC(F)(F)F (centres unmarked) [FLE, flecainide] turned out to be 1.92

----------
- Test system: hvCAS (human ventricular cardiac anisotropic sheet of HES2 hESC-derived ventricular cardiomyocytes)
- Assay type: cell-based
property.label: arrhythmic risk compared to the respective vehicle control (FIG. 3H)

COc1cc(N)c(Cl)cc1C(=O)NC1CCN(CCCOc2ccc(F)cc2)CC1OC (stereo not drawn) [CISA, cisapride]: elevated risk
O=C(NCC1CCCCN1)c1cc(OCC(F)(F)F)ccc1OCC(F)(F)F (stereo not drawn) [FLE, flecainide]: elevated risk
CCN(CC)CCNC(=O)c1ccc(N)cc1 [PROC, procainamide]: elevated risk
CC(C)(C)c1ccc(C(O)CCCN2CCC(C(O)(c3ccccc3)c3ccccc3)CC2)cc1 (stereo not drawn): elevated risk
Cc1cccc(C)c1NC(=O)C(C)N (stereo not drawn) [TOC, tocainide]: lower risk

# compound "CC(=O)Oc1ccccc1C(=O)O" ; its arrhythmic risk compared to the respective vehicle control (FIG. 3H) = lower risk

----------
- Test system: hvCAS (human ventricular cardiac anisotropic sheet of HES2 hESC-derived ventricular cardiomyocytes)
- Type: cell-based
- experimental.context: human, pH 7.4
Catalogue of Chirality of Re-entry: Anticlock-wise readings, one per entry.

O=C(NCC1CCCCN1)c1cc(OCC(F)(F)F)ccc1OCC(F)(F)F (centres unmarked) [FLE, flecainide]: 3
CCN(CC)CCNC(=O)c1ccc(N)cc1 [PROC, procainamide]: 3
Cc1cccc(C)c1NC(=O)C(C)N (centres unmarked) [TOC, tocainide]: 0
CC(C)(C)c1ccc(C(O)CCCN2CCC(C(O)(c3ccccc3)c3ccccc3)CC2)cc1 (centres unmarked): 3

Quick note, Chirality of Re-entry: Anticlock-wise for COc1cc(N)c(Cl)cc1C(=O)NC1CCN(CCCOc2ccc(F)cc2)CC1OC (centres unmarked) [CISA, cisapride] landed at 5

----------
- Test system: hvCAS (human ventricular cardiac anisotropic sheet of HES2 hESC-derived ventricular cardiomyocytes)
- Assay type: cell-based
- experimental.context: human, pH 7.4
Marks after values point to notes of the source that are not given here.
property.label: No. of Re-entry, 1st dose

Use these answered entries as a reference point.
COc1cc(N)c(Cl)cc1C(=O)NC1CCN(CCCOc2ccc(F)cc2)CC1OC (stereo not drawn) [CISA, cisapride]: 2^[a]
O=C(NCC1CCCCN1)c1cc(OCC(F)(F)F)ccc1OCC(F)(F)F (stereo not drawn) [FLE, flecainide]: 4^[a]

Now examine the next entry.
Please fill in: No. of Re-entry, 1st dose reported for CCN(CC)CCNC(=O)c1ccc(N)cc1 [PROC, procainamide] = 1^[a]
